Provide the recorded % Entrapment PC-Chol LNP for the entries that follow.
Assay: Prodrug incorporation (entrapment) in lipid nanoparticles, UHPLC
Assay type: physicochemical
Settings: LD-DEX prodrug in PC-Chol LNP

For the compound CCCCCCCC/C=C\CCCCCCCCOC(=O)CCC(=O)OCC(=O)[C@@]1(O)[C@H](C)C[C@H]2[C@@H]3CCC4=CC(=O)C=C[C@]4(C)[C@@]3(F)[C@@H](O)C[C@@]21C , what % Entrapment PC-Chol LNP is on record?
100%

Could you tell me which % Entrapment PC-Chol LNP is on file for CCCCC/C=C\C/C=C\CCCCCCCC(=O)OC[C@H](COC(=O)CCC(=O)OCC(=O)[C@@]1(O)[C@H](C)C[C@H]2[C@@H]3CCC4=CC(=O)C=C[C@]4(C)[C@@]3(F)[C@@H](O)C[C@@]21C)OC(=O)CCCCCCC/C=C\C/C=C\CCCCC ?
100%

% Entrapment PC-Chol LNP lookup needed for CCCCC/C=C\C/C=C\CCCCCCCCOCCCCSCC(=O)[C@@]1(O)[C@H](C)C[C@H]2[C@@H]3CCC4=CC(=O)C=C[C@]4(C)[C@@]3(F)[C@@H](O)C[C@@]21C , thanks.
90%

Give its % Entrapment PC-Chol LNP value. Item: CCCCCCCCCCCCCCCCOC(=O)CCC(=O)OCC(=O)[C@@]1(O)[C@H](C)C[C@H]2[C@@H]3CCC4=CC(=O)C=C[C@]4(C)[C@@]3(F)[C@@H](O)C[C@@]21C
100%

Look up % Entrapment PC-Chol LNP: CCCCC/C=C\C/C=C\CCCCCCCCOC(=O)CCC(=O)OCC(=O)[C@@]1(O)[C@H](C)C[C@H]2[C@@H]3CCC4=CC(=O)C=C[C@]4(C)[C@@]3(F)[C@@H](O)C[C@@]21C
94%

So what's the measured % Entrapment PC-Chol LNP for this one? CCCCC/C=C\C/C=C\CCCCCCCC(=O)OC(COC(=O)CCC(=O)OCC(=O)[C@@]1(O)[C@H](C)C[C@H]2[C@@H]3CCC4=CC(=O)C=C[C@]4(C)[C@@]3(F)[C@@H](O)C[C@@]21C)CN(C)C (stereo partly drawn)
72%
